We begin with a simple list: items and their reported self-cleavage.
B1: LINE1-mini (parent)
chain: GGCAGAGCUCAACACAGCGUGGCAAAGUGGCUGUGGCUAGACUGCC

Variants of: B1
Test: self-cleavage, relative activity (ratio to wild type); higher = more cleavage; in vitro, sequencing; the parent is a self-cleaving ribozyme
# answer = number (no unit)

Looking up `GGCAGAGCUCAACACAACGUGGCAAAGUGGCUGUGGCUCGACUGCC` , I found its self-cleavage recorded as 0.07

Consider `GGCAGAGCUCAACACAGCGUGGCAAAGUCGCUGUGGAUAGACUGCC` . Its measured self-cleavage is 0.02

GET /value?item= `CGCAGAGCUCAACACAGCGUGGCAAAGAGGCUGUGGCUAGACUGCC` &field=self-cleavage returns 0.04

Noted for `GGCAGAACUCAACACAGCGUGGCAAAGUGGCUGUGGCUGGACUGCC` : its self-cleavage reads 0.07

Data point: `GGCAGAGCUCCACACAGCGUCGCAAAGUGGCUGUGGCUAGACUGCC` ; self-cleavage = 0.08

For `GGCAGAGCUCAACACCGCGUGGCAAAGUGGCUGUGGUUAGACUGCC` the variant record lists self-cleavage as 0.1

// `GACAGAGCUCAACACAGCGUGGCUAAGUGGCUGUGGCUAGACUGCC` : self-cleavage value = 0.86

Per the records, this variant ( `GGCAGAGCUCAACACAGCGUGGCAUAGUGCCUGUGGCUAGACUGCC` ) has self-cleavage equal to 0.46

Note to self: self-cleavage recorded for `GGCAGAGCUCAACAGAGCGUGGCAAAAUGGCUGUGGCUAGACUGCC` was 0.05

self-cleavage recorded for this variant, `GGCCGAGCUCAACACAGCGUGGCAAAGUGGAUGUGGCUAGACUGCC` , is 0.14

The measured self-cleavage associated with `GGCAGAGCUCCACACAGCUUGGCAAAGUGGCUGUGGCUAGACUGCC` reads 0.04

The measured self-cleavage associated with `GGCGGAGCUCAACAAAGCGUGGCAAAGUGGCUGUGGCUAGACUGCC` reads 0.08

What the record says about `GGCAGAGCUCAGCACAGCGUAGCAAAGUGGCUGUGGCUAGACUGCC` : self-cleavage is 0.05

# self-cleavage (variant: `GGCGGAUCUCAACACAGCGUGGCAAAGUGGCUGUGGCUAGACUGCC` ) is 0.18

self-cleavage reading for `GGCUGAGCUCAACACAGCGUGGCAAAGUGGCUGUGGCCAGACUGCC` : 0.17

Summary for this variant, `GGCAGAGCUCAACACAGCGUGGCAAAGUGGUUGUGGCUAGACUGUC` : self-cleavage is 0.18

For `GUCAGAGCUCAACACAGCGUGGCAAAGUGGCUGUGGCUAGACUGUC` the variant record lists self-cleavage as 0.11

self-cleavage reported for this variant `GGCGGAGCUCAACACAGCGUGGCAAAGUGGCUGUGGCUACACUGCC` : 0.1

Please fill in: self-cleavage reported for `GGCAGAGCUCAACACAGCGUGGCAAAGGGGCUGUGGCAAGACUGCC` = 0.19

For `GGCAAAGCUCAACACAGCGUGGCAAAGUGGCUGUGGCUAGACUGCC` the variant record lists self-cleavage as 0.16

`GGCAGAGCUCAACACAGCGUGGGAAAGAGGCUGUGGCUAGACUGCC` yielded self-cleavage of 0.7

These measurements were taken from the RNAGym collection of RNA variant scans (doi:10.7554/elife.90254).
